Reference for the values: paper PMC5540273

Tested on: CDK11;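 further: KINOMEscan kinase panel screen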
Construct: gene CDK19
Run Parameters: concentration: 1 μM, replicates: in singlicate; n = 1
Would you mind telling me the reported %Inh of each entry?
Numbers only, in %.

Reference set (5 entries):
>>> numeric_value("Fc1cccc(CSc2nnc(-c3ccc4c(c3)CCO4)o2)c1")
0
>>> numeric_value("O=c1cc(N2CCOCC2)nc2n(Cc3ccc(F)c(Cl)c3)ccn12 [GSK2297099]")
0
>>> numeric_value("Cn1c(=O)c(F)c(Nc2ccc(I)cc2F)c2c(=O)n(OC[C@H](O)CO)cnc21")
0
>>> numeric_value("COc1ccc(-c2coc3ccc(-c4nnc(SCc5cccc(C#N)c5)o4)cc23)cc1")
0
>>> numeric_value("Nc1n[nH]c2ncc(-c3ccccc3)cc12 [SB-517081]")
0

Hi team, please reply with %Inh for each item in this list.
1. O=C(Nc1n[nH]c2nc(-c3ccccc3)c(Br)cc12)C1CC1 [SB-708998]
2. Cl.c1ccc(Cn2cnc3cc(Nc4ncnc5ccccc45)ccc32)cc1 [GW272142]

Out:
0
8
